system tested: Sulfhydryl oxidase 1 (Homo sapiens)
test method notes: QSOX1 enzyme inhibitors, confirmation, biochemical, ROS-Glo luminescence, single concentration (AID 1347421);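 also: 0% = DMSO wells with enzyme and 100% = wells lacking QSOX1 enzyme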
applied conditions: recombinant hQSOX1, RNase A substrate, ROS-Glo H2O2 luminescence; at 10 µM
In all, about 1,500 compounds were measured (“activity”: median about 2, lowest 2% from about -18 on). The full list was thinned out, with the lowest values kept by preference.
measurement name: activity (%)

COc1cc(C)nc(NC(=O)Nc2cccc(Cl)c2)n1	-2.3
COc1ccc(CNCCc2scnc2C)cc1OCC(O)CN(C)C(C)C (stereo not drawn)	7.8
CC(C)CCCC1CN(C(=O)CCC(N)=O)CCO1 (stereo not drawn)	6.8
CCOC(=O)C1CCN(C(=O)CCc2ccc(OC)cc2)CC1	-2
COCC(=O)Nc1ccc(S(=O)(=O)N2CCCC(C)C2)cc1 (stereo not drawn)	7.5
C=CCn1nnnc1NCc1ccc(F)cc1	7.4
C=CCn1cc(CNC2CC(=O)N(Cc3cccc(F)c3)C2)c(C)n1 (stereo not drawn)	-1.3
OC(COc1ccccc1CNCCc1ccccn1)CN1CCSCC1 (stereo not drawn)	5.9
CCC(=O)Oc1ccc(-c2nc(-c3cccc(OC)c3)no2)cc1	86.9
CN(C)CCC1CN(C(=O)CSc2ccccc2)CCO1 (stereo not drawn)	4.2
C=CCCC(=O)N1CCC2(CCCN(Cc3ccc(F)c(F)c3)C2=O)C1 (stereo not drawn)	-1.3
CN(CCc1ccccn1)C(=O)CCC1CCCN(C(=O)Cc2cccnc2)C1 (stereo not drawn)	4.4
CN(C)S(=O)(=O)c1cccc(S(C)(=O)=O)c1	8.2
COc1ccccc1C(=O)C1CCCN(Cc2ccc(OCCO)cc2)C1 (stereo not drawn)	1.5
CC(=O)Oc1ccc(/C=C/c2ccc3ccccc3n2)cc1Cl	55.2
COCCn1c(CN(C)Cc2cccnc2)cnc1S(=O)(=O)CC(C)(C)C	7.7
CCN(CC)S(=O)(=O)Cc1ccccc1Cl	-19.9
COc1cc(CN2CC[C@@H](N3CCCCCC3)[C@H](O)C2)ccc1F	0.7
COc1ccc(C(=O)C2CCCN(Cc3ccc4cc(F)ccc4n3)C2)cc1OC (stereo not drawn)	1.1
Cc1ccc(C(=O)N2CCC3(CCCN(Cc4ccc(F)c(F)c4)C3=O)C2)cn1 (stereo not drawn)	3.9
Cc1ccccc1CC(=O)NCC(C)C	-16
c1ccc(CCCc2nn3c(-c4cccnc4)nnc3s2)cc1	3
O=C(CCN1CCCO1)N1CCCC(N2CCN(c3cccc(C(F)(F)F)c3)CC2)C1 (stereo not drawn)	-0.1
O=C(Nc1ccccc1N1CCN(C(=O)c2ccc(Cl)cc2)CC1)c1ccco1	0.8
CSc1ncc(CN2CCCC(C(=O)c3cccc(OC(C)C)c3)C2)cn1 (stereo not drawn)	8.6
O=C1N(CC2CCCCC2)CCCC1(O)CN1CCCOCC1 (stereo not drawn)	4.1
O=C(NCc1ccc2c(c1)OCO2)C1CCC(=O)N(CCc2cccc(F)c2)C1 (stereo not drawn)	-2
O=C(Nc1n[nH]c(C2CCCCC2)n1)N1CCOC2(CCCC2)C1	1
FC(F)(F)c1cc(-c2ccco2)nc(NCc2cccs2)n1	-4.8
Cc1cc(Oc2ccccc2)nc(Oc2ccc(=O)n(-c3ccccc3)n2)n1	-9.1
COC(=O)C1CCCCN1C(=O)c1ccc2oc(C(C)C)nc2c1 (stereo not drawn)	4.4
COc1ccc(S(=O)(=O)N2CCCC2)cc1N(C)S(C)(=O)=O	-11
CCN(CC)C(=O)C1CCCN(Cc2nc(-c3ccc(Cl)cc3)oc2C)C1 (stereo not drawn)	4.3
O=C(CCC1CCCN(Cc2ccccn2)C1)N1CCN(Cc2ccccc2)CC1 (stereo not drawn)	-0.9
COc1ccccc1Oc1ncccc1CNCC1CCOC1 (stereo not drawn)	2.6
CCN(CC)C(=O)NCc1ccccn1	-15.1
CCSCCn1ncc(N2CCNCC2)cc1=O	1.4
O=C(NC(=O)N1CCCCCC1)c1ccc(Cl)cc1	-10.3
O=C(C1CCCO1)N1CCc2[nH]nc(-c3ccc(C(F)(F)F)cc3)c2C1 (stereo not drawn)	-2.9
COCCN1CCCC(O)(CN2CCCCCC2)C1=O (stereo not drawn)	10.4
O=C(Nc1ccccc1)N1CCN(c2nsc3ccccc23)CC1	-22.1
O=C(CCc1ccsc1)N1CCOC(Cc2ccccc2Cl)C1 (stereo not drawn)	20.5
CC(C)(CO)NC(=O)CC(c1ccccc1)c1ccc(Cl)cc1 (stereo not drawn)	0.5
COc1cc(C(=O)NC2CCCCC2)ccc1OC1CCN(C(C)=O)CC1	3.4
OCC1CCN(C2CCCN(Cc3cccc(OC4CCCC4)c3)C2)CC1 (stereo not drawn)	7
FC(F)(F)c1cc(-c2ccco2)nc(N2CCCCC2)n1	-20.8
Cc1oc(-c2ccccc2Cl)nc1CN(Cc1cnn(C)c1)C(C)C	5.9
COc1ccc(S(=O)(=O)N2CCCC(C(=O)NC3CC3)C2)cc1OC (stereo not drawn)	-18.9

Where do the numbers come from? From PubChem BioAssay AID1347421.
